- targetOrTestSystem: T1, AjKissR1 (Apostichopus japonicus)
- T1 chain: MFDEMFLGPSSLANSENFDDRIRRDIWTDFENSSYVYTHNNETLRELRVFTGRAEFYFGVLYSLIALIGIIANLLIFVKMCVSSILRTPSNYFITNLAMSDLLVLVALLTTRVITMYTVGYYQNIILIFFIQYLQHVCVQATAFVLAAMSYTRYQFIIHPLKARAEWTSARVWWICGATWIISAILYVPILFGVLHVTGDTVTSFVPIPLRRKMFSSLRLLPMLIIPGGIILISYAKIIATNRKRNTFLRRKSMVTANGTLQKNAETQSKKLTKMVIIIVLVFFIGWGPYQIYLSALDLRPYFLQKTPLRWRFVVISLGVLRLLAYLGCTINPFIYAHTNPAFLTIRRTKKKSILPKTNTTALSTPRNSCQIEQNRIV
- procedureDetails: FACS; competition with 1.0 uM FITC-AjKiss1a
pIC50: −log10 of the molar value. Positions of bridges follow the written chain, without caps; N, C: chain ends. No end group written: not given here.

{"columns": ["binder", "pIC50"],
 "data": [
  ["AGSLDCLEASCEDVERRGRQPNRNAHYRTLPF-NH2 (disulfide 6-11 (inferred)) [AjKiss1a]", 6.25]
]}

Value source: paper doi:10.1101/851261
